All values here come from ChEMBL document CHEMBL1125359.

# SYSTEM TESTED: Leukotriene B4 receptor 1 (Homo sapiens, UniProt Q15722)
# Sequence (Q15722 whole entry): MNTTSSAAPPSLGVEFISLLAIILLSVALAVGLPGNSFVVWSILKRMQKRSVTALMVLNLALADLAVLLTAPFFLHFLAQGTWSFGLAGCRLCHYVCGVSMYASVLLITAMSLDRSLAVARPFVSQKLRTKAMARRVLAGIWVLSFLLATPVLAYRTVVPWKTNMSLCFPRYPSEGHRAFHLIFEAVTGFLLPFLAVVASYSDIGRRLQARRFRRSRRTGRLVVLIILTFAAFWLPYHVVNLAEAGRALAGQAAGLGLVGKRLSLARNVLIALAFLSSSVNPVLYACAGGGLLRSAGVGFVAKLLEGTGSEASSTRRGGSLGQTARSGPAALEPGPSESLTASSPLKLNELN
# ASSAY DETAILS: Inhibition of LTB4-induced elastase release in human polymorphonuclear leukocytes
# Assay type: functional, cell-based

{"columns": ["MOLECULE", "LT GT EQ", "IC50 (nM)"],
 "data": [
  ["CC(CCCCOc1cc(-c2ccccc2)cc(-c2ccccc2F)n1)C(=O)O (stereo not given)", "=", 70],
  ["CC(CCCCOc1cc(-c2ccc3c(c2)OCO3)cc(-c2ccccc2Cl)n1)C(=O)O (stereo not given)", "=", 12],
  ["O=C(O)CCCCOc1cc(-c2ccccc2)cc(-c2ccccc2)n1", "=", 20000],
  ["O=C(O)CCCCCOc1cc(-c2ccc3c(c2)OCO3)cc(-c2ccccc2)n1", "=", 2000],
  ["O=C(O)CCCCCOc1cc(-c2ccc(NC(=O)C(F)(F)F)cc2)cc(-c2ccccc2)n1", ">", 10000],
  ["CC(CCCCOc1cc(-c2ccccc2)cc(-c2ccccc2)n1)C(=O)O (stereo not given)", "=", 22],
  ["O=C(O)CCCCCOc1cc(-c2ccccc2Cl)cc(-c2ccccc2)n1", ">", 10000],
  ["COc1ccc(/C=C/CCCCOc2ccc(C(=O)c3cccc(C(=O)O)c3)cc2CCC(=O)O)cc1", "=", 1000],
  ["CC(C)(CCCCCCOc1cc(-c2ccccc2)cc(-c2ccccc2)n1)C(=O)O", "=", 100],
  ["O=C(O)CCCCCOc1cc(-c2ccccc2)cc(-c2ccc(F)cc2)n1", ">", 10000]
]}
